Test system: MAP4K4;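 further: KINOMEscan kinase panel screen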
COND: concentration: 1 μM, replicates: in singlicate; n = 1
PROPERTY LABEL: %Inh (%)
Give a bare numeral; the unit % is implied.

As a guide, the following entries are already answered.
Qu. Field request: %Inh | item: CN(C(=O)c1ccc(-c2cc(-c3c[nH]nc3-c3ccccn3)ccn2)cc1)C1CCOCC1
Ans. 9

Qu. Field request: %Inh | item: COCCNC(=O)c1ccc(-c2cc(C(=O)NC3CC3)cc(F)c2C)cc1
Ans. 3

Qu. Field request: %Inh | item: Cc1nnc(-c2ccc3occ(-c4ccc(C(C)O)cc4)c3c2)o1 (stereo not shown)
Ans. 12

Switching to the query record.
Qu. Field request: %Inh | item: O=C(Nc1cccc(-c2nn3ncccc3c2-c2ccnc(Nc3cccc(C(F)(F)F)c3)n2)c1)c1c(F)cccc1F
Ans. 0
